Cited source: patent US8853258B2

System: Acinetobacter baumanii/haemolyticus: Multidrug-resistant clinical isolate (AB-3167)
Assay: MIC determination (CLSI), AB-3167
Type: cell-based
Conditions: Acinetobacter baumanii/haemolyticus multidrug-resistant clinical isolate AB-3167
ENDPOINT NAME: AB-3167 MIC

{"COMPOUND": "Cc1cc(-c2ccc(CCC(C)(C(=O)NO)S(C)(=O)=O)cc2)ccc1CCO (stereo not shown)", "RESULT": "≧64 mg/L"}
{"COMPOUND": "CC(CCc1ccc(-c2cnc(C#N)cn2)cc1)(C(=O)NO)S(C)(=O)=O (stereo not shown)", "RESULT": "≧64 mg/L"}
{"COMPOUND": "CC(C)c1ccc(-c2ccc(CCC(C)(C(=O)NO)S(C)(=O)=O)cc2)cc1 (stereo not shown)", "RESULT": "4 µg/mL"}
{"COMPOUND": "Cn1cc(-c2ccc(CCC(C)(C(=O)NO)S(C)(=O)=O)cc2)cn1 (stereo not shown)", "RESULT": "≧64 mg/L"}
{"COMPOUND": "CC(CCc1ccc(-c2cnc(N3CCOCC3)nc2)cc1)(C(=O)NO)S(C)(=O)=O (stereo not shown)", "RESULT": "≧64 mg/L"}
{"COMPOUND": "Cc1cc(-c2ccc(F)cc2)ccc1CCC(C)(C(=O)NO)S(C)(=O)=O (stereo not shown)", "RESULT": "8 µg/mL"}
{"COMPOUND": "CC(C)Oc1ccc(-c2ccc(CCC(C)(C(=O)NO)S(C)(=O)=O)cc2)cc1 (racemic)", "RESULT": "8 µg/mL"}
{"COMPOUND": "CC(CCc1ccc(-c2cncnc2)cc1)(C(=O)NO)S(C)(=O)=O (racemic)", "RESULT": "≧64 mg/L"}
{"COMPOUND": "Cc1cc(-c2ccc(C#N)cc2)ccc1CCC(C)(C(=O)NO)S(C)(=O)=O (stereo not shown)", "RESULT": "≧64 mg/L"}
{"COMPOUND": "CC(CCc1ccc(-c2ccc(C#N)nc2)cc1)(C(=O)NO)S(C)(=O)=O (stereo not shown)", "RESULT": "≧64 mg/L"}
{"COMPOUND": "CC(CCc1ccc(-c2ccc(F)c(F)c2)cc1)(C(=O)NO)S(C)(=O)=O (racemic)", "RESULT": "8 µg/mL"}
{"COMPOUND": "CC(CCc1ccc(-c2ccc(C#N)cc2)cc1)(C(=O)NO)S(C)(=O)=O (stereo not shown)", "RESULT": "≧64 mg/L"}
{"COMPOUND": "Cc1cc(F)ccc1-c1ccc(CCC(C)(C(=O)NO)S(C)(=O)=O)cc1 (stereo not shown)", "RESULT": "32 µg/mL"}
{"COMPOUND": "COc1ccc(-c2ccc(CCC(C)(C(=O)NO)S(C)(=O)=O)cc2)cc1OC (stereo not shown)", "RESULT": "≧64 mg/L"}
{"COMPOUND": "COc1ccc(-c2ccc(CCC(C)(C(=O)NO)S(C)(=O)=O)cc2)cn1 (racemic)", "RESULT": "≧64 mg/L"}
{"COMPOUND": "CC(CCc1ccc(-c2ccc(OCCCCN)cc2)cc1)(C(=O)NO)S(C)(=O)=O (stereo not shown)", "RESULT": "≧64 mg/L"}
{"COMPOUND": "COc1ccc(-c2ccc(CCC(C)(C(=O)NO)S(C)(=O)=O)cc2)cc1F (racemic)", "RESULT": "16 µg/mL"}
{"COMPOUND": "Cc1cc(-c2ccc(CCC(C)(C(=O)NO)S(C)(=O)=O)cc2)ccc1O (stereo not shown)", "RESULT": "≧64 mg/L"}
{"COMPOUND": "CC(CCc1ccc(-c2ccc(CCO)cc2)cc1)(C(=O)NO)S(C)(=O)=O (stereo not shown)", "RESULT": "≧64 mg/L"}
{"COMPOUND": "C[C@@](CCc1ccc(-c2ccc(C#N)cc2)cc1)(C(=O)NO)S(C)(=O)=O", "RESULT": "16 µg/mL"}
{"COMPOUND": "CC(CCc1ccc(-c2ccc(N3CCNCC3)cc2)cc1)(C(=O)NO)S(C)(=O)=O (stereo not shown)", "RESULT": "≧64 mg/L"}
{"COMPOUND": "C[C@@](CCc1ccc(-c2ccc(C(=O)N3CCC(O)CC3)cc2)cc1)(C(=O)NO)S(C)(=O)=O", "RESULT": "≧64 mg/L"}
{"COMPOUND": "Cc1cc(-c2ccc(CCC(C)(C(=O)NO)S(C)(=O)=O)cc2)ccc1C#N (stereo not shown)", "RESULT": "32 µg/mL"}
{"COMPOUND": "CN1CCN(c2ccc(-c3ccc(CCC(C)(C(=O)NO)S(C)(=O)=O)cc3)cc2)CC1 (stereo not shown)", "RESULT": "≧64 mg/L"}
{"COMPOUND": "COc1ccccc1-c1ccc(CCC(C)(C(=O)NO)S(C)(=O)=O)cc1 (stereo not shown)", "RESULT": "≧64 mg/L"}
{"COMPOUND": "CC(CCc1ccc(-c2ccc(C#N)c(O)c2)cc1)(C(=O)NO)S(C)(=O)=O (stereo not shown)", "RESULT": "≧64 mg/L"}
{"COMPOUND": "COc1cc(O)ccc1-c1ccc(CCC(C)(C(=O)NO)S(C)(=O)=O)cc1 (stereo not shown)", "RESULT": "≧64 mg/L"}
{"COMPOUND": "CC(=O)c1ccc(-c2ccc(CC[C@](C)(C(=O)NO)S(C)(=O)=O)cc2)cc1", "RESULT": "16 µg/mL"}
{"COMPOUND": "CC(CCc1ccc(-c2cc(Cl)ccc2F)cc1)(C(=O)NO)S(C)(=O)=O (racemic)", "RESULT": "8 µg/mL"}
{"COMPOUND": "CC(CCc1ccc(-c2ccc(CN)cc2)cc1)(C(=O)NO)S(C)(=O)=O (stereo not shown)", "RESULT": "≧64 mg/L"}
{"COMPOUND": "CC(CCc1ccc(-c2ccc(CO)cc2)cc1)(C(=O)NO)S(C)(=O)=O (stereo not shown)", "RESULT": "≧64 mg/L"}
{"COMPOUND": "Cc1cccc(-c2ccc(CCC(C)(C(=O)NO)S(C)(=O)=O)cc2)c1C (stereo not shown)", "RESULT": "≧64 mg/L"}
{"COMPOUND": "CC(CCc1ccc(-c2ccc(F)cc2)c(F)c1)(C(=O)NO)S(C)(=O)=O (stereo not shown)", "RESULT": "8 µg/mL"}
{"COMPOUND": "Cc1cc(CCC(C)(C(=O)NO)S(C)(=O)=O)ccc1-c1ccc(F)cc1 (stereo not shown)", "RESULT": "16 µg/mL"}
